System: A2780 (ovarian carcinoma)
Protocol Description: MTT cytotoxicity assay, A2780
Measurement Setup: Homo sapiens, A2780, 72 h, read-out: EC50 A2780
Reported Endpoint: EC50 (µM)

>>> numeric_readout("[H]/N=C(/N)N/C(=N/[H])NCCc1ccccc1")
104

---

Tested on: MDA-MB-231 (breast adenocarcinoma)
Protocol Description: MTT cytotoxicity assay, MDA-MB-231
Measurement Setup: read-out: EC50 MDA-MB-231; MTT assay, exposure time 72 hours
pEC50: −log10 of the molar value.
Parameter threshold = 5. Response is 1 when pEC50 meets or exceeds it, else -1.

>>> assigned_category("N.N.[Cl][Pt][Cl] [Cisplatin]")
-1
>>> assigned_category("[Cl][Au-]1([Cl])[c]2ccccc2Cc2cccc[n+]21")
1
>>> assigned_category("CN(C)C1=[NH+][Au-]2([NH]C(N)=N1)[c]1ccccc1C(=O)c1cccc[n+]12.F[P-](F)(F)(F)(F)F (centres unmarked)")
1
>>> assigned_category("O=C1c2cccc[c]2[Au-]([Cl])([Cl])[n+]2ccccc21")
-1
